Ref: the kinase profiling compilation of Christmann-Franck et al. (2016)

Molecular target: PKN1 (human)
Assay: KINOMEscan competition binding
Details: compound 10.0 µM
kinase still bound, per cent of control strictly less than 80% = 1. Otherwise 0.

In: Determine whether this compound shows kinase still bound, per cent of control lower than 80% (ties excluded): `COc1cc(N2CCC(O)CC2)ccc1Nc1ncc2c(n1)N1CCc3cccc(c31)C(=O)N2C`
Out: 0

In: Would you kindly verify if kinase still bound, per cent of control of `COc1cc(N2CCN(C)CC2)ccc1Nc1ncc2c(n1)N(C)c1sccc1C(=O)N2C` is strictly less than 80%?
Out: 0

In: Lab note: kinase still bound, per cent of control threshold 80%. Does this compound come in strictly under it? `N=C1NC(=O)/C(=C/c2ccc(-c3cncc4ccccc34)o2)S1`
Out: 1

In: Given `CN1C(=O)c2ccccc2N(C)c2nc(NS(=O)(=O)c3ccc(N)cc3)ncc21` , is recorded kinase still bound, per cent of control strictly lower than 80%?
Out: 0

In: hey, is kinase still bound, per cent of control for `CN1C(=O)c2ccccc2N(C)c2nc(Nc3ccc(N4CCC(O)CC4)cc3)ncc21` lower than 80% or not?
Out: 0

In: Determine if `COc1cc(N2CCN(C)CC2)ccc1Nc1ncc2c(n1)Nc1ccccc1NC2=O` shows kinase still bound, per cent of control strictly lower than 80%.
Out: 1

* * *

Kindly supply the reported kinase still bound, per cent of control values for the records listed here.
Target: PRKD3 (human) (UniProt O94806)
Sequence (O94806 whole entry, looked up): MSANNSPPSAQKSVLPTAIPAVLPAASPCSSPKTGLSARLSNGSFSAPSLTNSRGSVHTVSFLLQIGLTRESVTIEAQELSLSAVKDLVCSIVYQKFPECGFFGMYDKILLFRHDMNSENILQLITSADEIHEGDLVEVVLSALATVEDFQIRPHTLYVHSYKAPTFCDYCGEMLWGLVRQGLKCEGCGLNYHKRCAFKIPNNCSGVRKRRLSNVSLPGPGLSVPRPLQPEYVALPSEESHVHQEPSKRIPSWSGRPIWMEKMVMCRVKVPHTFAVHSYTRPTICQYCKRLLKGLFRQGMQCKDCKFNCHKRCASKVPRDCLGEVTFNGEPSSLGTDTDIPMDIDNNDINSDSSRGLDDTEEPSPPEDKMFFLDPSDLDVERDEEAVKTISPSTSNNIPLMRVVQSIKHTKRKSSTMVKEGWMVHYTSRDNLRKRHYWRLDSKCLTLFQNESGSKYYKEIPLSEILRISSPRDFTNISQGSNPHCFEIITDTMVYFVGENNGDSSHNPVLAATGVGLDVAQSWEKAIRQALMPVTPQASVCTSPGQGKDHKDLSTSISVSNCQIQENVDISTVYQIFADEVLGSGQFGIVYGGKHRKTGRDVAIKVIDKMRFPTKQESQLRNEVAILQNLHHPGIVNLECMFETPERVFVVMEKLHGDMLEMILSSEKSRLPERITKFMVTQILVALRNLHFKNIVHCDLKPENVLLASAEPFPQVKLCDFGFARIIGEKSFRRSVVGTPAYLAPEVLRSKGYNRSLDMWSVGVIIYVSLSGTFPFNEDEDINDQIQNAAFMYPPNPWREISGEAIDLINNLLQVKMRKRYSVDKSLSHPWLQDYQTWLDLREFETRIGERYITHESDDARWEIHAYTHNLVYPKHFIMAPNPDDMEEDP
Assay: KINOMEscan competition binding
Settings: compound 10.0 µM
Respond numerically; units are % and should not be typed.

In: Notebook: pull reported kinase still bound, per cent of control for PRKD3 (human) (UniProt O94806), entry `CN1C(=O)c2ccccc2N(C)c2nc(NS(=O)(=O)c3ccc(N)cc3)ncc21`
Out: 100

In: Lab request: please report kinase still bound, per cent of control under test system PRKD3 (human) (UniProt O94806) for `N=C1NC(=O)/C(=C/c2ccc(-c3cncc4ccccc34)o2)S1`
Out: 26

In: Under PRKD3 (human) (UniProt O94806): kinase still bound, per cent of control value of `COc1cc(N2CCN(C)CC2)ccc1Nc1ncc2c(n1)N(C)c1sccc1C(=O)N2C` ?
Out: 5.8

In: Given the entry `COc1cc(C(=O)NC2CCN(C)CC2)ccc1Nc1ncc2c(n1)N(C1CCCC1)CCC(=O)N2C` , what kinase still bound, per cent of control was observed with PRKD3 (human) (UniProt O94806)?
Out: 32

In: # value lookup — system PRKD3 (human) (UniProt O94806), readout kinase still bound, per cent of control, item `COc1cc(N2CCC(O)CC2)ccc1Nc1ncc2c(n1)N1CCc3cccc(c31)C(=O)N2C`
Out: 22

In: Value wanted: kinase still bound, per cent of control (PRKD3 (human) (UniProt O94806)) of entry `CN1C(=O)c2ccccc2N(C)c2nc(Nc3ccc(N4CCC(O)CC4)cn3)ncc21`
Out: 20

In: // lookup kinase still bound, per cent of control | system=PRKD3 (human) (UniProt O94806) | key= `CN1CCN(c2ccc(C(=O)Nc3ncc4c(n3)N(C)c3ccccc3C(=O)N4C)cc2)CC1`
Out: 90

In: Reported kinase still bound, per cent of control for PRKD3 (human) (UniProt O94806), given `CN1C(=O)c2ccccc2N(C)c2nc(Nc3ccc(N4CCC(O)CC4)cc3)ncc21` ?
Out: 69

In: Provide value of kinase still bound, per cent of control for this record tested with PRKD3 (human) (UniProt O94806): `O=C1NC(=O)/C(=C/c2c[nH]c(=O)c(-c3ccc(N4CCNCC4)nc3)c2)S1`
Out: 13

In: Observed kinase still bound, per cent of control on PRKD3 (human) (UniProt O94806) for `COc1cc(N2CCN(C)CC2)ccc1Nc1ncc2c(n1)Nc1ccccc1NC2=O` , please.
Out: 66

In: Give the reported kinase still bound, per cent of control for `COc1cc(N2CCN(C)CC2)ccc1Nc1ncc2c(n1)N(C)c1ccccc1C(=O)N2` (system: PRKD3 (human) (UniProt O94806)).
Out: 32

In: Identify the measured kinase still bound, per cent of control of `COc1cc(N2CCN(C)CC2)ccc1Nc1ncc2c(n1)N(C)c1ccccc1N(C)C2=O` for PRKD3 (human) (UniProt O94806).
Out: 85

In: Quick check: kinase still bound, per cent of control on PRKD3 (human) (UniProt O94806), item COc1cc(N2CCN(C)CC2)ccc1Nc1ncc2c(n1)N(C1CCCC1)C(C)CC(=O)N2C (centres undefined) ?
Out: 14

In: Request - read-out kinase still bound, per cent of control | tested on PRKD3 (human) (UniProt O94806) | compound `N=C1NC(=O)/C(=C/c2ccc(-c3ccccc3O)o2)S1`
Out: 28

In: Lookup: kinase still bound, per cent of control / PRKD3 (human) (UniProt O94806) / `CS(=O)(=O)Nc1ccc(-c2cc(/C=C3\SC(=N)NC3=O)c[nH]c2=O)cc1`
Out: 33

In: State its kinase still bound, per cent of control on PRKD3 (human) (UniProt O94806): `CS(=O)(=O)Nc1ccc(-c2cncc(/C=C3\SC(=N)NC3=O)c2)cc1`
Out: 24

In: Item: `COc1cc(N2CCN(C)CC2)ccc1Nc1ncc2c(n1)N1CCC[C@H]1CC(=O)N2` Test system: PRKD3 (human) (UniProt O94806) Read-out: kinase still bound, per cent of control Value: ?
Out: 30

In: Enter reported kinase still bound, per cent of control observed with PRKD3 (human) (UniProt O94806) for COc1cc(C(=O)NC2CCN(C)CC2)ccc1Nc1ncc2c(n1)N(C1CCCC1)C(C)CC(=O)N2C (centres undefined)
Out: 32

In: # get_value(readout= kinase still bound, per cent of control, system= PRKD3 (human) (UniProt O94806)) for `COc1cc(N2CCN(C)CC2)ccc1Nc1ncc2c(n1)N(C)c1ccccc1C(=O)N2C`
Out: 5.4
